biological target: Orexin receptor type 2 (Homo sapiens); assay: Displacement of [125I]-orexin-A from human OX2 receptor expressed in CHOK1 cells at 10 uM incubated for 10 mins and measured after 90 mins by liquid scintillation counting method relative to control; assay type: cell-based
Rule: inhibition under 30% gives Not satisfied, otherwise Satisfied.

Chemical structure: O=C(O)c1cccc2c(C(=O)c3ccccc3)cc(C(=O)c3ccc(C(F)(F)F)cc3)c-2c1
Category: Not satisfied
--
Chemical structure: O=C(O)c1ccc2ccc(C(=O)c3ccc(C(F)(F)F)cc3)c-2cc1
Category: Not satisfied
--
Chemical structure: O=C(O)c1cccc2c(C(=O)c3ccccc3)cc(C(=O)c3ccc(C(Cl)(Cl)Cl)cc3)c-2c1
Category: Not satisfied
--
Chemical structure: NC(=O)c1ccc2ccc(C(=O)c3ccccc3)c-2cc1
Category: Not satisfied
--
Chemical structure: O=C(Oc1ccc2ccc(Cl)ccc1-2)c1cccnc1
Category: Satisfied
--
Chemical structure: COC(=O)c1cccc2c(C=O)cc(I)c-2c1
Category: Satisfied
--
Chemical structure: O=C(O)c1ccc2c(C(=O)c3ccccc3)cc(C(=O)c3ccccc3)c-2cc1
Category: Not satisfied
--
Chemical structure: NC(=O)c1ccc2c(C=O)cc(-c3ccccc3)c-2cc1
Category: Not satisfied
--
Chemical structure: COC(=O)c1ccc2ccc(C=O)c-2cc1
Category: Satisfied
--
Chemical structure: Cc1ccc2ccc(C(=O)c3ccc(C(F)(F)F)cc3)c-2cc1
Category: Satisfied
--
Chemical structure: COC(=O)c1cc(CN2CCOCC2)c2ccc(Cl)ccc1-2
Category: Satisfied

====

Molecular target: Orexin receptor type 2 (Homo sapiens)
Sequence (whole entry): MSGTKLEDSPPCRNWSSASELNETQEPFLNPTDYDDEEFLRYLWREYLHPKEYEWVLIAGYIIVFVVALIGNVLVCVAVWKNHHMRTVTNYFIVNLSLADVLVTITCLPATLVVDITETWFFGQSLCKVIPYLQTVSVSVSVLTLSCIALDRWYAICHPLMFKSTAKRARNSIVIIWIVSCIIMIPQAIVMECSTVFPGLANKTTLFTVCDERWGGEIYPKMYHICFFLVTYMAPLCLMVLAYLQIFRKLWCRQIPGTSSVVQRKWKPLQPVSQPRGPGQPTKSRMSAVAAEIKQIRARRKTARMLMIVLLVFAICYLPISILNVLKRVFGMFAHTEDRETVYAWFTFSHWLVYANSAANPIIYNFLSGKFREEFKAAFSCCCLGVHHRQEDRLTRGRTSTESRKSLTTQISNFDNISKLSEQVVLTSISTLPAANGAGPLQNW
Assay: Agonist activity at human OX2 receptor expressed in CHOK1 cells assessed as increase in calcium accumulation at 10 uM incubated for 30 mins measured for 150 secs by calcium-4 dye based FLIPR assay relative to orexin-A
Type: functional, cell-based
Recorded Emax for the following molecules

Chemical structure: O=C(O)c1ccc2ccc(C(=O)c3ccccc3)c-2cc1
Measurement units: %
Emax: 2.29

Chemical structure: NC(=O)c1ccc2ccc(C(=O)c3ccccc3)c-2cc1
Measurement units: %
Emax: 1.32

Chemical structure: O=C(Oc1ccc2ccc(Cl)ccc1-2)c1ccccc1
Measurement units: %
Emax: -3.3

Chemical structure: O=Cc1cc(-c2ccccc2)c2ccc(C(=O)O)ccc1-2
Measurement units: %
Emax: -0.21

Chemical structure: O=C(O)c1cccc2c(C(=O)c3ccccc3)cc(C(=O)c3ccc(C(F)(F)F)cc3)c-2c1
Measurement units: %
Emax: -3.18

Chemical structure: Cc1ccc2ccc(C(=O)c3ccc(C(F)(F)F)cc3)c-2cc1
Measurement units: %
Emax: -0.44
